Measured pKd values are reported for all entries that follow.
- TARGET_ENTITY: T1, his-tagged human TIGIT (Acro Biosystems #TIT-H52H3) (human, UniProt Q495A1 22-141)
- T1 construct: Bought protein; also called His-tagged-TIGIT (human); not shown: his tag
- T1 sequence (looked up): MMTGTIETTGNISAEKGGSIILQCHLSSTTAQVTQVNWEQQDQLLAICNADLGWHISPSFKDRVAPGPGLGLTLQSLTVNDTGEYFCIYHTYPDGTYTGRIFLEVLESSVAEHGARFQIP
- EXPERIMENTAL_PROTOCOL: SPR (Carterra LSA), scFv-Fc captured, His-TIGIT analyte
Interpret pKd as the negative base-10 log of the concentration measured in mol/L.

Use these answered entries as a reference point.
{"columns": ["BINDER", "pKd"],
 "data": [
  ["43586p1.2.E4 (scFv, V domains shown) VH: EVQLLESGGGLVQPGGSLRLSCAASGFTFSDYLMTWVRQAPGKGLEWVSTITWDGDRTYYADSVKGRFTISRDNSKNTLYLQMNSLRAEDTAVYYCAKHWTVFQYGMDVWGQGTTVTVSS VL: QSVLTQPPSASGTPGQRVTISCSGTISNIEIKYVSWYQQLPGTAPKLLIYGNHQRPSGVPDRFSGSKSGTSASLAISGLQSEDEADYYCSSWENDLKSWVFGGGTKLTVL", 9.93],
  ["43645p1.E3 (scFv, V domains shown) VH: EVQLLESGGGLVQPGGSLRLSCAASGFTFSSYAMSWVRQAPGKGLEWVSAIYFDGSIYDADSVKGRFTISRDNSKNTLYLQMNSLRDEDTAVYYCAKSHTVLQYGMDVWGQGTTVTVSS VL: QSVLTQPPSASGTPGQRVTISCSGVTSNIRNSYVSWYQQLPGTAPKLLIYGNDQRPSGVPDRFSGSKSGTSASLAISGLQSEDEADYYCGTWDNTLNAWVFGGGTKLTVL", 10.57],
  ["43586p2.B03 (scFv, V domains shown) VH: EVQLLESGGGWVQPGGSLRLSCAASGFTFIDYWMSWVRQAPGKGLEWVSSISWIGDTTFYADSVKGRFTISRDSSLNTVYLQMNSLRAEDTAVYYCAKHWTVYQYGMDVWGQGTTVTVSS VL: QSVLTQPPSASGTPGQRVTISCSGGSSKIGSKYVHWYQQLPGTAPKLLIYKDDQRPSGVPDRFSGSKSGTSASLAISGLQSEDEADYYCAAWDDRVNAWVFGGGTKLTVL", 7.17]
]}

# input Hello, please tell me recorded pKd for this one: 43586p1.2.F6 (scFv, V domains shown, Tested as scFv-Fc supernatant; also called 43586p1.2.F06) VH: EVQLLESGEGLVQPGGSLRLSCAASGFTFTSYLMSWVRQAPGKGLEWVSTITWDGDRTYYADSVKGRFTISRDNSKNTLYLQMNSLRVGDTAVYYCAKHWTVFQYGMDVWGQGTTVTVSS VL: QSVLTQPASASGTPGQRVTISCSGTISNIETKYVSWYQQLPGTAPKLLIYGNHQRPSGVPDRFSGSKSGTSASLAISGLQSEDEADYYCASWENDLKSWVFGGGTKLTVL
# output 9.65

Taken from patent US20230265187A1.
